Tested on: Human immunodeficiency virus 1
Assay: Antiviral activity against HIV1 assessed as inhibition of viral replication in cell based assay
Type: functional, organism-based
MEASURED METRIC: IC50 (nM)
# number only, unit nM dropped from output

Fill in IC50 for `O=c1c(O)cccc(O)c1O` tested with Human immunodeficiency virus 1.
300
